Assay system UniProt P07943; read-out recorded as IC50.
PARAMETER: IC50

INSERT INTO measurements (molecule, result) VALUES
  ('COc1cc(C=CC(=O)c2ccc(CC3SC(=O)NC3=O)cc2)ccc1O (stereo not drawn)', '4200 nM'),
  ('O=C1NC(=O)C(Cc2ccc(C(=O)C=Cc3ccc(O)c(O)c3)cc2)S1 (stereo not drawn)', '520 nM'),
  ('COc1cc(C=CC(=O)c2cccc(CC3SC(=O)NC3=O)c2)ccc1O (stereo not drawn)', '1900 nM');

Provenance of the data: patent US5225426A
